Experiment: Half-life in mouse liver microsomes at 1 uM preincubated for 10 mins and measured up to 60 mins by LC-MS/MS analysis
Type: ADME, Microsome
quantity_kind: half-life at 1 µM (min)
The figure you give is taken to be in min; do not add the unit.

Task: Could you tell me which half-life at 1 µM is on file for Cc1c(CCSCCO[N+](=O)[O-])cc(-c2ccc(S(C)(=O)=O)cc2)n1-c1ccc(F)cc1 ?
Output: 22.8

Moving on to the next molecule.
Task: Could you tell me which half-life at 1 µM is on file for Cc1c(CC[S+]([O-])CCO[N+](=O)[O-])cc(-c2ccc(S(C)(=O)=O)cc2)n1-c1ccc(F)cc1 (stereo not given) ?
Output: 35.1

---

Molecular target: Prostaglandin G/H synthase 2 (Mus musculus, UniProt Q05769)
Sequence (Q05769 whole entry): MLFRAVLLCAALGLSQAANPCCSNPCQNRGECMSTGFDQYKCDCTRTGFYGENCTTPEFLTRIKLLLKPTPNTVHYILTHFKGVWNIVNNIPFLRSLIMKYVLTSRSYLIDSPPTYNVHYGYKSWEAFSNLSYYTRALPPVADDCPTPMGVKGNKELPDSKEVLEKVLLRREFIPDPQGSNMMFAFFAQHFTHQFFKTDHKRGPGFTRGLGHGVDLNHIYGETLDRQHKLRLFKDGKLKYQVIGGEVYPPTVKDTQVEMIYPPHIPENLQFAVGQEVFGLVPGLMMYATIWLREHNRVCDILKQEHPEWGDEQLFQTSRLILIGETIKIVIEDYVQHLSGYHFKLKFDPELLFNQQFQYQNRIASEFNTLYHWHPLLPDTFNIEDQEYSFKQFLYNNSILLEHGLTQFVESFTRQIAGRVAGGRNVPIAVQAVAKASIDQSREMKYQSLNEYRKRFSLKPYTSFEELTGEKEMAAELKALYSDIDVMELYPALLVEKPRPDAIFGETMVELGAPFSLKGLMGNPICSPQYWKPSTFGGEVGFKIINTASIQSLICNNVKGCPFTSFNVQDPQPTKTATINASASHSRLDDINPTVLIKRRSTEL
Assay: Inhibition of COX2 in LPS-stimulated mouse J774 cells assessed as inhibition of PGE2 production and measured after 24 hrs by enzyme immuno-assay (EIA)
Catalogue of molecules with associated IC50
Record the value in nM, omitting the unit from your answer.

These solved cases illustrate the format of a correct answer.
Task: Need IC50 of Cc1c(CC[S+]([O-])CCO)cc(-c2ccc(S(C)(=O)=O)cc2)n1-c1ccc(F)c(F)c1 (centres undefined) , thanks.
Output: 140

Task: What value of IC50 has been reported for the following molecule? Cc1c(CCSCCO[N+](=O)[O-])cc(-c2ccc(S(C)(=O)=O)cc2)n1-c1ccc(F)c(F)c1
Output: 16

Task: Requested read-out: IC50. Entry: Cc1c(CCSCCO[N+](=O)[O-])cc(-c2ccc(S(C)(=O)=O)cc2)n1-c1ccc(F)cc1
Output: 9

Please find the next molecule below.
Task: May I ask what IC50 has been recorded for Cc1c(CC[S+]([O-])CCO[N+](=O)[O-])cc(-c2ccc(S(C)(=O)=O)cc2)n1-c1ccc(F)c(F)c1 (centres undefined) ?
Output: 3

---

Reported half-life at 1 µM values for a set of compounds
Test: Half-life in mouse liver microsomes at 1 uM preincubated for 10 mins and measured up to 60 mins by LC-MS/MS analysis
Assay type: ADME, Microsome
I only need the number, in min, no unit after it.

The cases that follow already have their half-life at 1 µM on record.
Task: Which measured half-life at 1 µM value corresponds to Cc1c(CCSCCO)cc(-c2ccc(S(C)(=O)=O)cc2)n1-c1ccc(F)cc1 ?
Output: 19.2

Task: Look at this compound and give its reported half-life at 1 µM. CCOc1ccc2ccc(=O)oc2c1
Output: 4.7

Let us examine a further case.
Task: Tell me the measured half-life at 1 µM of Cc1c(CC[S+]([O-])CCO)cc(-c2ccc(S(C)(=O)=O)cc2)n1-c1ccc(F)cc1 (stereo not drawn) , please.
Output: 142
